tested on: UACC-257 melanoma; test: NCI-60 one-dose screen, 48 h (100 = growth as untreated, 0 = no growth, -100 = all killed); conditions: 10 µM unless noted
Compounds without any hit were thinned out: in the full panel of roughly 83,000, 20% have a hit. Calls of active or inactive are those of the source. How the source made its calls: active means growth percent below 10; inactive means the rest.
Hi there, I'd appreciate the recorded growth for every entry that follows.

# input Fill blank: measured growth of the compound COc1ccc(-c2nc3c(c(-c4ccccc4)nn3-c3ccccc3)c(-c3ccc(N4CCOCC4)cc3)c2C#N)cc1 is ____.
# output 101% (inactive)

# input Bench note: what growth did Cc1ccc2c3c(c(=O)[nH]c2c1)C1(C(C#N)=C(N)O3)c2cc(Br)ccc2-c2ccc(Br)cc21 show?
# output 71.2% (inactive)

# input Give its growth value. Item: CC/C(=C(/c1ccc(Cl)cc1)c1ccc(OCCN2CCCC2)cc1)c1ccc(OC)cc1
# output 74.8% (inactive)

# input What value of growth has been reported for the following compound? O=C(Cn1c(=O)sc2nc3ccccc3nc21)Nc1ncc(Cc2cccc(Cl)c2Cl)s1
# output 107% (inactive)

# input Looking for the measured growth of O=C(CSc1nc2ccc([N+](=O)[O-])cc2[nH]1)Nc1ccc(F)cc1 , can you help?
# output 44.5% (inactive)

# input # lookup: growth of Cn1cc(-c2csc(-c3c[nH]c4ccc(Br)cc34)n2)c2cnccc21
# output -50.2% (active)

# input Reported growth, compound C=C1C(=O)O[C@H]2[C@H]1CC/C(COC(=O)CSCCSCC(=O)OC/C1=C/CC[C@@]3(C)O[C@H]3[C@H]3OC(=O)C(=C)[C@@H]3CC1)=C\CC[C@@]1(C)O[C@@H]21 : ____
# output 49.9% (inactive)

# input Can you look up the measured growth of C#CCOc1ccc2ncnc(Nc3ccc(NC(=O)CCl)cc3)c2c1 for me?
# output 38.8% (inactive)

# input # get_value(readout='growth', item= Cc1oc(-c2ccc(Cl)cc2)nc1/C=C/C(=O)c1ccccc1 )
# output 106% (inactive)

# input Entry CC1(C)c2[nH]c3ccccc3c2C[C@]2(C)[C@H]3CC=C4[C@@H]5C[C@@](C)(C(N)=O)CC[C@]5(C)CC[C@@]4(C)[C@]3(C)CC[C@@H]12 has what growth?
# output 52.5% (inactive)

# input Entry under review: Brc1ccc(-n2cc(-c3nn[nH]n3)c(-c3cccs3)n2)cc1 . Reported growth?
# output 96.1% (inactive)

# input Returns the measured growth for the input compound. Input: Cc1c(-n2nnc(-c3nc4ccccc4s3)c2N)c(=O)n(-c2ccccc2)n1C
# output 102% (inactive)

# input Looking for the measured growth of COc1cnc2c(c1)C(=O)c1c-2n(CCCNCCO)c(=O)c2ccncc12 , can you help?
# output -19.3% (active)

# input I have this compound here, CCn1cc(C(=O)N/N=C/c2cccs2)c(=O)c2cc(F)c(N3CCNC(C)C3)c(F)c21 (centres undefined) , and I need its recorded growth.
# output 108% (inactive)

###

test system: TK-10 renal; assay: NCI-60 one-dose screen, 48 h (100 = growth as untreated, 0 = no growth, -100 = all killed); conditions: 10 µM unless noted
About 83,000 compounds went through this panel and 20% of them were active in at least one assay; those are over-represented in the sample as a whole.
Attribute Measured: growth (%)
Kindly provide the numeric value in % only, without the unit symbol.

# input Fill in the blank: the reported growth of O=[N+]([O-])c1ccc(N/N=C(/C(=N/Nc2ccc([N+](=O)[O-])cc2)c2ccccc2)c2ccccc2)cc1 is ____.
# output 94.4

# input What value of measured growth is listed for COc1ccc(C(=O)Nc2cccc(C3CC(=O)c4c(cc(OC)c(OC)c4OC)O3)c2)cc1 (stereo not drawn) ?
# output 40.3

# input Please report the recorded growth for CC1=Nc2cnc(Nc3ccc(OCCN4CCCCC4)cc3)nc2Nc2ccccc21 .
# output 64.2
